Origin of measurements: paper PMC10848209

# Test system: Colo205 colon adenocarcinoma cells
# testDescription: MTT cytotoxicity assay, Colo205
# protocolConditions: read-out: IC50 Colo205, 10^4 cells, 72 h exposure
pIC50: −log10 of the molar value.
Reported pIC50 values for a set of compounds

Return value of pIC50 for input [Cl-].[Cl-].[Zn+2] [ZnCl2] , no commentary. < 5.00

Return value of pIC50 for input [Cl][Cu][Cl] [CuCl2] , no commentary. < 5.00

Then this compound:
Return value of pIC50 for input [Cl][Fe]([Cl])[Cl] [FeCl3] , no commentary. < 5.00

---

Reported pIC50 values for a set of molecules
# System: SW480 colon carcinoma cells
# testDescription: MTT cytotoxicity assay, SW480
# protocolConditions: read-out: IC50 SW480, 2 × 10^3 cells, 96 h exposure
// returns pIC50 (minus log10 of molar concentration), number only

Return value of pIC50 for input [Cl][Cu][Cl] , no commentary. 3.81

Then this molecule:
Return value of pIC50 for input [Cl-].[Cl-].[Zn+2] , no commentary. 3.90
